Entries and their inhibition at 5 min values follow.
TGT: CYP2C8 (Homo sapiens)
Construct: Pooled human microsomes were obtained from Sekisui XenoTech, KS; tissue Sekisui XenoTech, KS; host or cells: pooled human liver microsomes
Sequence (P10632 whole entry): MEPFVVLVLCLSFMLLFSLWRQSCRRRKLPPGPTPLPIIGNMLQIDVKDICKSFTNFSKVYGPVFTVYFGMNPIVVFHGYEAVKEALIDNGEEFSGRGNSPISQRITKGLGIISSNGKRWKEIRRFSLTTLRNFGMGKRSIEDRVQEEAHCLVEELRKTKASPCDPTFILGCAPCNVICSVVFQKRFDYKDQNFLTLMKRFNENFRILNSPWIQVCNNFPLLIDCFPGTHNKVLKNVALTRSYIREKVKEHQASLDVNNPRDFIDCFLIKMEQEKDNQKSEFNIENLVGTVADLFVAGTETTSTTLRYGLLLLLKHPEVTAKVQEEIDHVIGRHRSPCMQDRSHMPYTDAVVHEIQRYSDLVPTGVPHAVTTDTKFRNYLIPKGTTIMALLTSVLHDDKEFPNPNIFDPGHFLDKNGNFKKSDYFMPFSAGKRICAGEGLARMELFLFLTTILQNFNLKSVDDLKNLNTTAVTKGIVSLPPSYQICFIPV
ASSAY_OVERVIEW: CYP Inhibition Assay (CYP2C8, human liver microsomes, paclitaxel substrate)
Assay type: in vitro ADME
ASSAY_CONTEXT: pH 7.4; pooled human liver microsomes 0.1 mg/mL, probe substrate paclitaxel
Description: Example B: CYP Inhibition Assay Objective: To assess the % inhibition of test compounds against CYP2C8 enzyme in human liver microsomes. […] The CYP enzyme activity was determined based on the formation of 6a-hydroxypaclitaxel metabolite. The % inhibition was calculated using this equation: % Inhibition=100×(1−Ainactivator/Avehicle), where Ainactivator is the CYP enzyme activity in the presence of test compound, and Avehicle is the CYP activity in the presence of vehicle.

- SMI: "CC(C)N([C@H]1CCC2=Cc3c(cnn3-c3ccc(F)cc3)C[C@]2(C(=O)c2cc(C(F)(F)F)ccn2)C1)S(=O)(=O)c1ccc(Cl)nc1"
  inhibition at 5 min: "50 to 75%"
- SMI: "Cn1cc(S(=O)(=O)N(C2CC2)[C@H]2CCC3=Cc4c(cnn4-c4ccc(F)cc4)C[C@]3(C(=O)c3cc(C(F)(F)F)ccn3)C2)cn1"
  inhibition at 5 min: "25 to 50%"
- SMI: "CN([C@H]1CCC2=Cc3c(cnn3-c3ccc(F)cc3)C[C@]2(C(=O)c2ncc(C(F)(F)F)s2)C1)S(=O)(=O)c1cnn(C)c1"
  inhibition at 5 min: "50 to 75%"
- SMI: "Cn1ccc(S(=O)(=O)N(CC(F)F)[C@H]2CCC3=Cc4c(cnn4-c4ccc(F)cc4)C[C@]3(C(=O)c3cc(F)ccn3)C2)n1"
  inhibition at 5 min: "75 to 90%"
- SMI: "CN([C@H]1CCC2=Cc3c(cnn3-c3ccc(F)cc3)C[C@]2(C(=O)c2ncc(C3CC3)s2)C1)S(=O)(=O)c1cnn(C)c1"
  inhibition at 5 min: "75 to 90%"
- SMI: "Cn1ncc(S(=O)(=O)N(CC2CC2)[C@H]2CCC3=Cc4c(cnn4-c4ccc(F)cc4)C[C@]3(C(=O)c3ncc(C(F)(F)F)s3)C2)n1"
  inhibition at 5 min: "50 to 75%"

----------
TGT: CYP2C8 (Homo sapiens)
Construct: Pooled human microsomes were obtained from Sekisui XenoTech, KS; tissue Sekisui XenoTech, KS; host or cells: pooled human liver microsomes
ASSAY_OVERVIEW: CYP Inhibition Assay (CYP2C8, human liver microsomes, paclitaxel substrate)
Assay type: in vitro ADME
ASSAY_CONTEXT: pH 7.4; pooled human liver microsomes 0.1 mg/mL, probe substrate paclitaxel
Procedure: Example B: CYP Inhibition Assay Objective: To assess the % inhibition of test compounds against CYP2C8 enzyme in human liver microsomes. […] The CYP enzyme activity was determined based on the formation of 6a-hydroxypaclitaxel metabolite. The % inhibition was calculated using this equation: % Inhibition=100×(1−Ainactivator/Avehicle), where Ainactivator is the CYP enzyme activity in the presence of test compound, and Avehicle is the CYP activity in the presence of vehicle.
QUANTITY_KIND: inhibition at 5 min

- COMPOUND: "Cn1ccc(S(=O)(=O)N([C@H]2CCC3=Cc4c(cnn4-c4ccc(F)cc4)C[C@]3(C(=O)c3ncc(C(F)(F)F)s3)C2)[C@H]2C[C@](O)(C(F)(F)F)C2)n1 [Example 366]"
  MEASURED_RESULT: "≤ 25%"
- COMPOUND: "Cn1cc(S(=O)(=O)N(CC(F)F)[C@H]2CCC3=Cc4c(cnn4-c4ccc(F)cc4)C[C@]3(C(=O)c3cc(C(F)(F)F)ccn3)C2)nn1 [Example 311]"
  MEASURED_RESULT: "≤ 25%"
- COMPOUND: "CN([C@H]1CCC2=Cc3c(cnn3-c3ccc(F)cc3)C[C@]2(C(=O)c2ccc(C3CC3)cn2)C1)S(=O)(=O)c1cnn(C)c1 [Example 93]"
  MEASURED_RESULT: "75 to 90%"
- COMPOUND: "Cn1ccc(S(=O)(=O)N(CC2CC2)[C@H]2CCC3=Cc4c(cnn4-c4ccc(F)cc4)C[C@]3(C(=O)c3cc(C(F)(F)F)ccn3)C2)n1 [Example 178]"
  MEASURED_RESULT: "25 to 50%"
- COMPOUND: "Cn1cnc(S(=O)(=O)N(C2CCC2)[C@H]2CCC3=Cc4c(cnn4-c4ccc(F)cc4)C[C@]3(C(=O)c3cc(C(F)(F)F)ccn3)C2)c1 [Example 226]"
  MEASURED_RESULT: "50 to 75%"
- COMPOUND: "CN([C@H]1CCC2=Cc3c(cnn3-c3ccc(F)cc3)C[C@]2(C(=O)c2cc(C(F)(F)F)ccn2)C1)S(=O)(=O)c1ccn(C)n1 [Example 98]"
  MEASURED_RESULT: "25 to 50%"
- COMPOUND: "Cn1cc(S(=O)(=O)N(CC(C)(C)O)[C@H]2CCC3=Cc4c(cnn4-c4ccc(F)cc4)C[C@]3(C(=O)c3cc(F)ccn3)C2)cn1 [Example 248]"
  MEASURED_RESULT: "≤ 25%"
- COMPOUND: "CC(C)N([C@H]1CCC2=Cc3c(cnn3-c3ccc(F)cc3)C[C@]2(C(=O)c2cc(C(F)(F)F)ccn2)C1)S(=O)(=O)c1cnn(C)n1 [Example 234]"
  MEASURED_RESULT: "75 to 90%"
- COMPOUND: "CC(C)N([C@H]1CCC2=Cc3c(cnn3-c3ccc(F)cc3)C[C@]2(C(=O)c2ncc(C(F)(F)F)s2)C1)S(=O)(=O)c1cnn(C)c1 [Example 191]"
  MEASURED_RESULT: "25 to 50%"
- COMPOUND: "CC(C)CN([C@H]1CCC2=Cc3c(cnn3-c3ccc(F)cc3)C[C@]2(C(=O)c2cc(C(F)(F)F)ccn2)C1)S(=O)(=O)c1ccn(C)n1 [Example 215]"
  MEASURED_RESULT: "50 to 75%"
- COMPOUND: "Cn1ccc(S(=O)(=O)N(CC2CC2)[C@H]2CCC3=Cc4c(cnn4-c4ccc(F)cc4)C[C@]3(C(=O)c3cc(Cl)ccn3)C2)n1 [Example 245]"
  MEASURED_RESULT: "50 to 75%"
- COMPOUND: "O=C(c1cc(Cl)ccn1)[C@]12Cc3cnn(-c4ccc(F)cc4)c3C=C1CC[C@H](N(C1CC1)S(=O)(=O)c1ccc(Cl)nc1)C2 [Example 321]"
  MEASURED_RESULT: "≤ 25%"
- COMPOUND: "CC(C)n1ncc(S(=O)(=O)[C@H]2CCC3=Cc4c(cnn4-c4ccc(F)cc4)C[C@]3(C(=O)c3cc(C(F)(F)F)ccn3)C2)n1 [Example 56]"
  MEASURED_RESULT: "75 to 90%"
- COMPOUND: "CC(C)N([C@H]1CCC2=Cc3c(cnn3-c3ccc(F)cc3)C[C@]2(C(=O)c2cc(C(F)(F)F)ccn2)C1)S(=O)(=O)c1cn(C)cn1 [Example 221]"
  MEASURED_RESULT: "50 to 75%"
- COMPOUND: "CC(C)N([C@H]1CCC2=Cc3c(cnn3-c3ccc(F)cc3)C[C@]2(C(=O)c2cc(Cl)ccn2)C1)S(=O)(=O)c1ccn(C)n1 [Example 242]"
  MEASURED_RESULT: "75 to 90%"
- COMPOUND: "Cn1ccc(S(=O)(=O)[C@H]2CCC3=Cc4c(cnn4-c4ccc(F)cc4)C[C@]3(C(=O)c3cc(C(F)(F)F)ccn3)C2)n1 [Example 113]"
  MEASURED_RESULT: "≤ 25%"
- COMPOUND: "O=C(c1cc(C(F)(F)F)ccn1)[C@]12Cc3cnn(-c4ccc(F)cc4)c3C=C1CC[C@H](N(CC1CC1)S(=O)(=O)c1ccc(F)cc1)C2 [Example 273]"
  MEASURED_RESULT: "≤ 25%"
- COMPOUND: "Cn1cnc(S(=O)(=O)N(C2CC2)[C@H]2CCC3=Cc4c(cnn4-c4ccc(F)cc4)C[C@]3(C(=O)c3cc(F)ccn3)C2)n1 [Example 347]"
  MEASURED_RESULT: "25 to 50%"
- COMPOUND: "Cn1cc(C(=O)N(C2CC2)[C@H]2CCC3=Cc4c(cnn4-c4ccc(F)cc4)C[C@]3(C(=O)c3cc(C(F)(F)F)ccn3)C2)cn1 [Example 102]"
  MEASURED_RESULT: "75 to 90%"
- COMPOUND: "Cn1ccc(S(=O)(=O)N(C2CCC2)[C@H]2CCC3=Cc4c(cnn4-c4ccc(F)cc4)C[C@]3(C(=O)c3ncc(C(F)(F)F)s3)C2)n1 [Example 203]"
  MEASURED_RESULT: "25 to 50%"
- COMPOUND: "Cn1cnc(S(=O)(=O)N(CC2CC2)[C@H]2CCC3=Cc4c(cnn4-c4ccc(F)cc4)C[C@]3(C(=O)c3ncc(C(F)(F)F)s3)C2)c1 [Example 217]"
  MEASURED_RESULT: "25 to 50%"
- COMPOUND: "Cn1ccc(S(=O)(=O)N([C@H]2CCC3=Cc4c(cnn4-c4ccc(F)cc4)C[C@]3(C(=O)c3ncc(C(F)(F)F)s3)C2)[C@H]2C[C@@](O)(C(F)(F)F)C2)n1 [Example 368]"
  MEASURED_RESULT: "25 to 50%"
- COMPOUND: "Cn1ccc(S(=O)(=O)N(C2CC2)[C@H]2CCC3=Cc4c(cnn4-c4ccc(F)cc4)C[C@]3(C(=O)c3cc(C(F)F)ccn3)C2)n1 [Example 258]"
  MEASURED_RESULT: "50 to 75%"

The reported measurements were obtained from patent US20210122730A1.
